# Target or test system: recombinant α-syn fibrils (Homo sapiens)
# Stated conditions: read-out: Ki, α-Syn fibrils; 200 nM [125I]SIL23, 1 µM fibrils; Ki from EC50; 95% confidence interval in parentheses
Parameter: Ki (nM)
Only the number, expressed in nM, is required.

**Query** Look up Ki: `CN(C)c1ncc(/C=C/c2nc3ccc(OCCF)cc3o2)s1`
**Result** 39.7

---

# Target or test system: recombinant tau fibrils (Homo sapiens, UniProt P10636)
# Sequence (P10636 560-692): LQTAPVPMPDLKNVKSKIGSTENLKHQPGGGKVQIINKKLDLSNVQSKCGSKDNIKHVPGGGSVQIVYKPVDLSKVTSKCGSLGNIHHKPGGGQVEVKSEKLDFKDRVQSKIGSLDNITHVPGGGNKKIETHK
# Experimental protocol: biochemical
I'd appreciate it if you could supply pKi values for the items below.
Lab note: report pKi as minus log10 of the concentration in molar units, number only.

**Query** Lookup: pKi / recombinant tau fibrils (Homo sapiens, UniProt P10636) / O=[N+]([O-])c1ccc2c(c1)Sc1ccccc1N2 [SIL3B]
**Result** 7.28

**Query** Lookup: pKi / recombinant tau fibrils (Homo sapiens, UniProt P10636) / O=[N+]([O-])c1ccc2c(c1)Sc1cc(Br)ccc1N2 [SIL22]
**Result** 6.76
